B1: Azoarcus group I ribozyme (parent)
chain: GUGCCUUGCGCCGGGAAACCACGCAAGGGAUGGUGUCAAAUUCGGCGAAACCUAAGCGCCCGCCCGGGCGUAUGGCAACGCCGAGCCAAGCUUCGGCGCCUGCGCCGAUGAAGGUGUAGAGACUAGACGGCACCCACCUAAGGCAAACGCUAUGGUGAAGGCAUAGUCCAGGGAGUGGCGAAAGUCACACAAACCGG

# Variants of: B1
# test_method_notes: reverse-splicing fitness (ratio to wild type); higher = more active; in vitro selection; Mg2+ level not given
Output: class label from reverse-splicing fitness. Mapping: bucket 1 = under 0.006, bucket 2 = from 0.006 up to 0.01, bucket 3 = 0.01 and over

Here are 5 variants together with their reported answers.
>  <mutation_descriptor>
A111U A120G A145G C150U C169G U176G

>  <class>
bucket 1

$$$$
>  <mutation_descriptor>
C82U A111C A120U A145U C169A U176G

>  <class>
bucket 1

$$$$
>  <mutation_descriptor>
C82U A111G A120G A145U C150G C169U U176C

>  <class>
bucket 3

$$$$
>  <mutation_descriptor>
C82G A111G A145G C169G U176C

>  <class>
bucket 3

$$$$
>  <mutation_descriptor>
C82A A111C A120C A145U C150G C169G U176A

>  <class>
bucket 2

$$$$

Input C82U A120G C150G U176A ; output its category
bucket 1

Class for C82U A120G C150U C169G U176A ?
bucket 3

Category lookup for the variant A145C C150G
bucket 3
